Biological target: Mu-type opioid receptor (Homo sapiens) (UniProt P35372)
Sequence (P35372 whole entry): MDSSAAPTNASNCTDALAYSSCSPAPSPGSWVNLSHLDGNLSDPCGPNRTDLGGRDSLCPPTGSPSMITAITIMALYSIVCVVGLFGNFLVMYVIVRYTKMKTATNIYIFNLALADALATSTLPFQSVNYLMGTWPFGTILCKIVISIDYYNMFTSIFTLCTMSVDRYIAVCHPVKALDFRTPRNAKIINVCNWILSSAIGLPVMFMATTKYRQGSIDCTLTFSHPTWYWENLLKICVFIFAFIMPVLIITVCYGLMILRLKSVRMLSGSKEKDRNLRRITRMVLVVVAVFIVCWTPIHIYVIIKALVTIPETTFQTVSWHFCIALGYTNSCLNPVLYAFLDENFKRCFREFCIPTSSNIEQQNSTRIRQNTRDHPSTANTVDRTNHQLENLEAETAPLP
Test: Antagonist activity at human cloned mu opioid receptor expressed in CHO cells assessed as inhibition of DAMGO-stimulated [35S]GTPgammaS binding
Format: functional, cell-based
Ke listing for selected compounds.
Include the unit after the number when you answer.

1) COc1ccc2c(c1)CN[C@@H](C(=O)N[C@H](CN1CC[C@@](C)(c3cccc(O)c3)[C@@H](C)C1)C(C)C)C2 ... 51.4 nM
2) CC(C)[C@@H](CN1CC[C@@](C)(c2cccc(O)c2)[C@@H](C)C1)NC(=O)CN1CCc2cc(O)ccc2C1 ... 21.4 nM
3) COc1ccc2cc(C(=O)N[C@H](CN3CC[C@@](C)(c4cccc(O)c4)[C@@H](C)C3)C(C)C)[nH]c2c1 ... 13.7 nM
4) CC(=O)Nc1ccc2c(c1)CN[C@@H](C(=O)N[C@H](CN1CC[C@@](C)(c3cccc(O)c3)[C@@H](C)C1)C(C)C)C2 ... 11 nM
5) CC(C)[C@@H](CN1CC[C@@](C)(c2cccc(O)c2)[C@@H](C)C1)NC(=O)c1nc2ccc(O)cc2[nH]1 ... 15.6 nM

Noted for CC(C)[C@@H](CN1CC[C@@](C)(c2cccc(O)c2)[C@@H](C)C1)NC(=O)[C@H]1Cc2ccc([N+](=O)[O-])cc2CN1 : its Ke reads 7.9 nM
